Recorded values, source PubChem BioAssay (NCI).

test system: MOLT-4 leukemia; test: NCI-60 one-dose screen, 48 h; settings: 10 µM unless noted
The panel holds about 83,000 compounds, 20% with a hit somewhere; the sample as a whole holds those more often. The source made the active and inactive calls. How the source made its calls: active means growth percent below 10; inactive means the rest.
Hello, when you answer, please use one of the following outcomes: yes (active), no (inactive)

O=C=Nc1ccc(Br)cc1 | no
O=S(=O)(F)c1cccc(Cl)c1C[P+](c1ccccc1)(c1ccccc1)c1ccccc1 | no
CCCCS(=O)(=O)Cl | no
C[C@]12CC[C@@H](OC(=O)N(CCCl)N=O)C[C@@H]1CC[C@@H]1[C@@H]2CC[C@]2(C)C(=O)CC[C@@H]12 | no
CCOP(=O)(NC)OCC | no
COc1ccc(N)cc1OC | no
O=CC1(c2ccccc2)CCN(Cc2ccccc2)CC1 | no
COC[C@H]1OC(=O)c2coc3c2[C@@]1(C)C1=C(C3=O)[C@@H]2CCC(=O)[C@@]2(C)C[C@H]1OC(C)=O | no

Give the logged outcome of this assay for the following molecule: O=C/C=C/c1ccco1
no

Hi, sorry to bother you, what did the test record for c1ccc2c(c1)sc1ccccc12 ?
no

Hey, what did the test say about CO[C@H]1[C@H](O[C@@H]2C[C@@H]3C/C=C/C(=O)O[C@@H](CO)C[C@H](O)[C@@H]4C[C@H](C)[C@H](C/C=C\C=C\[C@H](C)C[C@H](C2)O3)O4)O[C@@H](C)[C@H](O)[C@H]1O ?
no

Identify the outcome logged in this assay for the molecule shown: CCC(=O)C(CC(C)[N+](C)(C)C)(c1ccccc1)c1ccccc1 (configuration not stated)
no

What did this assay record as the result for CC1=C(C)C(=O)O[C@@H]([C@](C)(O)[C@]2(O)CC[C@@]3(O)[C@@H]4C[C@H]5O[C@]56CC=CC(=O)[C@]6(C)[C@H]4CC[C@]23C)C1 ?
yes

Please share the test call associated with Oc1cc(Cl)ccc1Oc1ccc(Cl)cc1Cl .
yes

Status in this test for C[C@]12CCc3sc(Nc4ccc(OC(F)(F)F)cc4)nc3C1=CC[C@@H]1[C@@H]2CC[C@]2(C)C(=O)CC[C@@H]12 ?
yes

What did this assay record as the result for O=Cc1cn(Cc2ccccc2)c2ccccc12 ?
no

State the result this test recorded for O=[N+]([O-])c1ccc(CI)cc1 .
no

How did this test come out for COc1ccn(C)c(=O)c1C#N ?
no
